Test system: Streptococcus pneumoniae
Assay: Antibacterial activity against macrolide resistant Streptococcus pneumoniae ATCC 700676
Type: functional
Give measured MIC for each item. Keep answers brief.

Q: State the recorded MIC for this entry: CC[C@H]1OC(=O)C[C@@H](O)[C@H](C)[C@@H](O[C@@H]2O[C@H](C)[C@@H](O[C@H]3C[C@@](C)(O)[C@@H](O)[C@H](C)O3)[C@H](N(C)C)[C@H]2O)[C@@H](CC=O)C[C@@H](C)C(=O)/C=C/C(C)=C/[C@@H]1CO[C@@H]1O[C@H](C)[C@@H](O)[C@@H](OC)[C@H]1OC
Ans: 0.2 µg/mL

Q: Item under review: CC[C@H]1OC(=O)C[C@@H](O)[C@H](C)[C@@H](O[C@@H]2O[C@H](C)[C@@H](O)[C@H](N(C)C)[C@@H]2O)[C@@H](CCN2CC(C)CC(C)C2)C[C@@H](C)C(=N\OCCCc2ccc3ncccc3c2)/C=C/C(C)=C/C1CO (stereo partly drawn) . Reported MIC?
Ans: 12.5 µg/mL

Q: For the molecule shown here, CC[C@H]1OC(=O)C[C@@H](O)[C@H](C)[C@@H](O[C@@H]2O[C@H](C)[C@@H](O)[C@H](N(C)C)[C@H]2O)[C@@H](CC=O)C[C@@H](C)C(=O)/C=C/C(C)=C/C1CO (stereo partly drawn) , give the reported MIC.
Ans: 0.78 µg/mL

###

For each entry below, report its MIC value.
Test system: Staphylococcus epidermidis
Test: Antibacterial activity against Staphylococcus epidermidis ATCC 12228
Format: functional
Form entry: value (mg/L) — number only.

Q: Value wanted: MIC (Staphylococcus epidermidis) of entry CC[C@H]1OC(=O)C[C@@H](O)[C@H](C)[C@@H](O[C@@H]2O[C@H](C)[C@@H](O[C@H]3C[C@@](C)(O)[C@@H](O)[C@H](C)O3)[C@H](N(C)C)[C@H]2O)[C@@H](CC=O)C[C@@H](C)C(=O)/C=C/C(C)=C/[C@@H]1CO[C@@H]1O[C@H](C)[C@@H](O)[C@@H](OC)[C@H]1OC
Ans: 0.39

Q: Short answer please: MIC, Staphylococcus epidermidis, entry CC[C@H]1OC(=O)C[C@@H](O)[C@H](C)[C@@H](O[C@@H]2O[C@H](C)[C@@H](O)[C@H](N(C)C)[C@H]2O)[C@@H](CC=O)C[C@@H](C)C(=N\OCCOc2ccccc2)/C=C/C(C)=C/C1CO (some centres not stated)
Ans: 1.56

###

Consider the following compounds; for each one, report its MIC.
Test system: Streptococcus pneumoniae
Assay: Antibacterial activity against macrolide resistant Streptococcus pneumoniae ATCC 700906
Format: functional

Q: Hi! What's the reported MIC for CC[C@H]1OC(=O)C[C@@H](O)[C@H](C)[C@@H](O[C@@H]2O[C@H](C)[C@@H](O)[C@H](N(C)C)[C@@H]2O)[C@@H](CCN2CC(C)CC(C)C2)C[C@@H](C)C(=N\OCCCCc2ccc3ccccc3c2)/C=C/C(C)=C/C1CO (some centres not stated) on Streptococcus pneumoniae?
Ans: > 12.5 µg/mL

Q: Under Streptococcus pneumoniae: MIC value of CC[C@H]1OC(=O)C[C@@H](O)[C@H](C)[C@@H](O[C@@H]2O[C@H](C)[C@@H](O)[C@H](N(C)C)[C@H]2O)[C@@H](CC=O)C[C@@H](C)C(=N/OCc2ccccc2)/C=C/C(C)=C/C1CO (some centres not stated) ?
Ans: > 12.5 µg/mL
